These data points were gathered from ChEMBL document CHEMBL4190353.

Below is a list of entries, each paired with its recorded pIC50 value.
# System: HeLa
# assay-info: Cytotoxicity against human HeLa cells assessed as reduction in cell viability incubated for 24 hrs by MTT assay
# Assay type: functional, cell-based
The quantity pIC50 is defined as the negative base-10 logarithm of the molar concentration.

{"smiles-entry": "CCN(CC)CCNC(=O)c1cn(C)c2cc(Cl)ccc2c1=O.Cl", "pIC50": 4.54}
{"smiles-entry": "CCN(CC)CCCNC(=O)c1cn(C)c2cc(Cl)ccc2c1=O.Cl", "pIC50": 5.02}
{"smiles-entry": "CCCCn1cc(C(=O)NCCN(CC)CC)c(=O)c2ccc(Cl)cc21.Cl", "pIC50": 4.67}

Please look at the following molecule next.
Query :: Given CCN(CC)CCCNC(=O)c1c[nH]c2cc(F)ccc2c1=O.Cl , state its recorded pIC50.
Result :: 4.40

====

# System: HepG2
# assay-info: Cytotoxicity against human HepG2 cells assessed as reduction in cell viability incubated for 24 hrs by MTT assay
# Assay type: functional, cell-based
# protocol-conditions: HepG2, 24 h
attribute-measured: IC50 (µM)
Field format: number, assumed µM, no unit text.

{"smiles-entry": "CCCCn1cc(C(=O)NCCN(CC)CC)c(=O)c2ccc(Cl)cc21.Cl", "IC50 (µM)": 6.92}

Query :: Form: Entry = CCN(CC)CCCNC(=O)c1cn(CC)c2cc(Cl)ccc2c1=O.Cl | System = HepG2 | IC50 = ____
Result :: 10.5

Query :: Param readout= IC50; system= HepG2; entry= CCN(CC)CCCNC(=O)c1cn(C)c2cc(Cl)ccc2c1=O.Cl ; returns value.
Result :: 8.72

Query :: Give recorded IC50 with HepG2 for the following compound: CCN(CC)CCCNC(=O)c1cn(Cc2ccccc2)c2cc(Cl)ccc2c1=O.Cl
Result :: 4.43

Query :: I'm curious: which IC50 was measured for C=CCn1cc(C(=O)NCCCN(CC)CC)c(=O)c2ccc(Cl)cc21.Cl tested on HepG2?
Result :: 12.6

Query :: Give IC50 (HepG2) of the following compound: CCN(CC)CCCNC(=O)c1cn(CCCc2ccccc2)c2cc(Cl)ccc2c1=O.Cl
Result :: 3.94

====

# Tested on: PC-3
# assay-info: Cytotoxicity against human PC3 cells assessed as reduction in cell viability incubated for 24 hrs by MTT assay
# Type: functional, cell-based
# protocol-conditions: PC-3, 24 h
attribute-measured: IC50 (µM)
The reply should contain only the number, in µM.

{"smiles-entry": "CCN(CC)CCCNC(=O)c1cn(C)c2cc(Cl)ccc2c1=O.Cl", "units-label": "µM", "IC50": 15.8}

Query :: IC50 lookup needed for CCN(CC)CCNC(=O)c1cn(Cc2ccccc2)c2cc(Cl)ccc2c1=O.Cl , thanks.
Result :: 9.5

Query :: Name the recorded IC50 for CCN(CC)CCCNC(=O)c1cn(CC)c2cc(Cl)ccc2c1=O.Cl .
Result :: 12.6

Query :: Look up IC50 for this compound: CCOC(=O)c1cn(CCCc2ccccc2)c2cc(Cl)ccc2c1=O
Result :: 16.1

Query :: Quick one: IC50 of CCN(CC)CCCNC(=O)c1cn(CCCc2ccccc2)c2cc(Cl)ccc2c1=O.Cl ?
Result :: 6.41

====

# System: RKO
# assay-info: Cytotoxicity against human RKO cells assessed as reduction in cell viability incubated for 24 hrs by MTT assay
# Format: functional, cell-based
Overview of recorded pIC50 for various compounds
# pIC50 = -log10(concentration in molar units)

Illustrative cases are given below, each with its answer.
{"smiles-entry": "CCCCn1cc(C(=O)NCCCN(CC)CC)c(=O)c2ccc(Cl)cc21.Cl", "attribute-measured": "pIC50", "assay-result": 5.02}
{"smiles-entry": "CCCCn1cc(C(=O)NCCN(CC)CC)c(=O)c2ccc(Cl)cc21.Cl", "attribute-measured": "pIC50", "assay-result": 4.77}
{"smiles-entry": "CCN(CC)CCCNC(=O)c1c[nH]c2cc(Br)ccc2c1=O.Cl", "attribute-measured": "pIC50", "assay-result": 4.41}
{"smiles-entry": "CCN(CC)CCCNC(=O)c1cn(C)c2cc(Cl)ccc2c1=O.Cl", "attribute-measured": "pIC50", "assay-result": 4.95}
{"smiles-entry": "C=CCn1cc(C(=O)NCCCN(CC)CC)c(=O)c2ccc(Cl)cc21.Cl", "attribute-measured": "pIC50", "assay-result": 4.79}

Query :: Quick check: pIC50 of CCCCn1cc(C(=O)OCC)c(=O)c2ccc(Cl)cc21 ?
Result :: 4.34

====

Entries annotated with measured IC50
# Tested on: HeLa
# assay-info: Cytotoxicity against human HeLa cells assessed as reduction in cell viability incubated for 24 hrs by MTT assay
# Assay type: functional, cell-based
Respond numerically; units are µM and should not be typed.

# example entries with known answers
{"smiles-entry": "CCN(CC)CCNC(=O)c1cn(CC)c2cc(Cl)ccc2c1=O.Cl", "units-label": "µM", "IC50": 13.8}
{"smiles-entry": "CCN(CC)CCCNC(=O)c1cn(CC)c2cc(Cl)ccc2c1=O.Cl", "units-label": "µM", "IC50": 15.1}
{"smiles-entry": "CCOC(=O)c1cn(CCCc2ccccc2)c2cc(Cl)ccc2c1=O", "units-label": "µM", "IC50": 14.8}

Query :: Recorded IC50 for C=CCn1cc(C(=O)NCCCN(CC)CC)c(=O)c2ccc(Cl)cc21.Cl with HeLa, please?
Result :: 19.1

Query :: Which IC50 is reported with HeLa for this entry: CCN(CC)CCCNC(=O)c1c[nH]c2cc(Cl)ccc2c1=O.Cl ?
Result :: 22.4

====

# System: HCT-116
# assay-info: Cytotoxicity against human HCT116 cells assessed as reduction in cell viability incubated for 24 hrs by MTT assay
# Type: functional, cell-based
# protocol-conditions: HCT-116, 24 h
attribute-measured: IC50 (µM)
Report the value in µM with no unit label.

Look over these answered cases.
{"smiles-entry": "CCOC(=O)c1cn(CCCc2ccccc2)c2cc(Cl)ccc2c1=O", "attribute-measured": "IC50", "units-label": "µM", "assay-result": 10.8}
{"smiles-entry": "CCN(CC)CCCNC(=O)c1c[nH]c2cc(F)ccc2c1=O.Cl", "attribute-measured": "IC50", "units-label": "µM", "assay-result": 38.6}
{"smiles-entry": "CCN(CC)CCNC(=O)c1cn(Cc2ccccc2)c2cc(Cl)ccc2c1=O.Cl", "attribute-measured": "IC50", "units-label": "µM", "assay-result": 11.2}

--- query ---
Query :: Can you look up the measured IC50 of CCCCn1cc(C(=O)OCC)c(=O)c2ccc(Cl)cc21 for me?
Result :: 39.8

====

# Test system: HepG2
# assay-info: Cytotoxicity against human HepG2 cells assessed as reduction in cell viability incubated for 24 hrs by MTT assay
# Format: functional, cell-based
# protocol-conditions: HepG2, 24 h
Measured IC50, listed per entry for reference.
Just the number in µM, nothing appended.

{"smiles-entry": "CCCCn1cc(C(=O)OCC)c(=O)c2ccc(Cl)cc21", "attribute-measured": "IC50", "assay-result": 28.3}
{"smiles-entry": "CCN(CC)CCCNC(=O)c1c[nH]c2cc(Br)ccc2c1=O.Cl", "attribute-measured": "IC50", "assay-result": 45.7}
{"smiles-entry": "CCN(CC)CCNC(=O)c1cn(Cc2ccccc2)c2cc(Cl)ccc2c1=O.Cl", "attribute-measured": "IC50", "assay-result": 4.32}

// next entry
Query :: Query (compound): CCOC(=O)c1cn(CCCc2ccccc2)c2cc(Cl)ccc2c1=O ; field requested: IC50
Result :: 15.1

====

// reported IC50 for each item listed
# Test system: PC-3
# assay-info: Cytotoxicity against human PC3 cells assessed as reduction in cell viability incubated for 24 hrs by MTT assay
# Format: functional, cell-based
# protocol-conditions: PC-3, 24 h
Numbers only here, please. The scale is µM.

Sample answers from the record:
{"smiles-entry": "CCN(CC)CCNC(=O)c1cn(CC)c2cc(Cl)ccc2c1=O.Cl", "assay-result": 15.9}
{"smiles-entry": "CCCCn1cc(C(=O)NCCCN(CC)CC)c(=O)c2ccc(Cl)cc21.Cl", "assay-result": 8.31}
{"smiles-entry": "CCN(CC)CCNC(=O)c1cn(C)c2cc(Cl)ccc2c1=O.Cl", "assay-result": 31.6}

Query :: Give its IC50 value. Item: CCOC(=O)c1cn(Cc2ccccc2)c2cc(Cl)ccc2c1=O
Result :: 27.9

Query :: Given the compound CCCCn1cc(C(=O)NCCN(CC)CC)c(=O)c2ccc(Cl)cc21.Cl , what is its reported IC50?
Result :: 44.6

Query :: Sample CCCCn1cc(C(=O)OCC)c(=O)c2ccc(Cl)cc21 — what was its IC50?
Result :: 41.7

Query :: I'd like to know its IC50. The compound in question is CCN(CC)CCCNC(=O)c1c[nH]c2cc(Cl)ccc2c1=O.Cl
Result :: 39.8

Query :: // lookup IC50 for CCN(CC)CCCNC(=O)c1cn(Cc2ccccc2)c2cc(Cl)ccc2c1=O.Cl
Result :: 10.2

Query :: Entry C=CCn1cc(C(=O)NCCCN(CC)CC)c(=O)c2ccc(Cl)cc21.Cl has what IC50?
Result :: 14.1

Query :: Using the record for C=CCn1cc(C(=O)NCCN(CC)CC)c(=O)c2ccc(Cl)cc21.Cl , report its IC50.
Result :: 44.5
